assayEndpoint: melting point (°C)

The examples below pair each entry with its known result.
molecule="Cc1ccc(F)cc1N1CCN(CC[C@H]2CC[C@H](NC(=O)CCC#N)CC2)CC1 [Example 278]" assayendpoint="melting point" valuereported=146
molecule="CC(=O)NCC(=O)N[C@H]1CC[C@H](CCN2CCN(c3ccccc3F)CC2)CC1 [Example 134]" assayendpoint="melting point" valuereported=217

[1] Cl.Cl.O=C(CN1CCC(CCN2CCN(c3cccc(C(F)(F)F)c3)CC2)CC1)c1ccc(F)c(F)c1
[2] CC(=O)CN1CCC(CCN2CCN(c3ccc(C)c(Cl)c3)CC2)CC1 [Example 618]
[3] N#CCC(=O)N[C@H]1CC[C@@H](CCN2CCN(c3cc(C(F)(F)F)ccc3F)CC2)CC1 [Example 586]
## Task Which order do these items take when sorted by rising melting point? List them. Answer format: the labels, in the requested order.
## Result 2, 3, 1
(2: 103 °C, 3: 152 °C, 1: 220 °C)

[I] N#CCC(=O)N[C@H]1CC[C@H](CCN2CCN(c3cc(C#N)cc(C(F)(F)F)c3)CC2)CC1 [Example 138]
[II] CC(=O)CN1CCC(CCN2CCN(c3ccc(C)c(F)c3)CC2)CC1.Cl.Cl
[III] CC(=O)CN1CCC(CCN2CCN(c3ccc4c(c3)OCCO4)CC2)CC1 [Example 711]
## Task Which order do these items take when sorted by rising melting point? List them. Answer format: the labels, in the requested order.
## Result III, I, II

[a] N#CCCC(=O)N[C@H]1CC[C@H](CCN2CCN(c3ccc(F)c(Cl)c3F)CC2)CC1 [Example 732]
[b] CC(=O)CN1CCC(CCN2CCN(c3ccc(C)c(C#N)c3)CC2)CC1 [Example 464]
## Task Which of these two has the smaller recorded melting point: a or b ? Give the label of your selection.
## Result b
(b: 107 °C, a: 190 °C)

[P] CC(=O)CN1CCC(CCN2CCN(c3cccc(C#N)c3)CC2)CC1.Cl.Cl
[Q] N#CCCCC(=O)N[C@H]1CC[C@H](CCN2CCN(c3ccc(C(F)(F)F)cc3F)CC2)CC1 [Example 646]
## Task Out of P and Q , name the one with the higher melting point. Give the label of your selection.
## Result P

====

assayEndpoint: melting point (°C)

The examples below pair each entry with its known result.
compound="CCCOCC(=O)N[C@H]1CC[C@H](CCN2CCN(c3cccc(C(F)(F)F)c3F)CC2)CC1 [Example 516]" valuereported=102
compound=Cc1cc(C)cc(C2=CCN(CC[C@H]3CC[C@H](NC(=O)CC#N)CC3)CC2)c1 valuereported=182
compound=COc1ccc(OC)c(N2CCN(CCC3CCN(CC(C)=O)CC3)CC2)c1.Cl.Cl valuereported=268
compound=CC(=O)CN1CCC(CCN2CC=C(c3cc(C(F)(F)F)ccc3F)CC2)CC1.Cl.Cl valuereported=282
compound=CC(=O)CN1CCC(CCN2CCN(c3ccc(Cl)c(Cl)c3F)CC2)CC1.Cl.Cl valuereported=230

[A] CC(C)(C)OCC(=O)N[C@H]1CC[C@H](CCN2CCN(c3cccc(C(F)(F)F)c3)CC2)CC1 [Example 135]
[B] CSc1ccccc1N1CCN(CC[C@H]2CC[C@H](NC(=O)CCCC#N)CC2)CC1 [Example 236]
## Task Out of A and B , name the one with the higher melting point. Give the label of your selection.
## Result B

[a] CC(=O)CN1CCC(CCN2CCN(c3ccc4scnc4c3)CC2)CC1 [Example 264]
[b] N#CCC(=O)N[C@H]1CC[C@H](CCN2CCN(c3cc(F)c(F)cc3F)CC2)CC1 [Example 472]
[c] CC(=O)CN1CCC(CCN2CCN(c3ccc(C#N)cc3)CC2)CC1.Cl.Cl
## Task Which order do these items take when sorted by rising melting point? List them. Answer format: the labels, in the requested order.
## Result a, b, c

[A] O=C(CCC(F)(F)F)N[C@H]1CC[C@H](CCN2CCN(c3cccc(C(F)(F)F)c3)CC2)CC1 [Example 265]
[B] CC(=O)CN1CCC(CCN2CC=C(c3cccc(C)c3C)CC2)CC1.Cl.Cl
## Task Which of these two has the smaller recorded melting point: A or B ? Give the label of your selection.
## Result A

[1] Cc1cc(C)cc(N2CCN(CC[C@H]3CC[C@H](NC(=O)CC#N)CC3)CC2)c1 [Example 148]
[2] CCCc1cccc(N2CCN(CC[C@H]3CC[C@H](NC(=O)CC#N)CC3)CC2)c1 [Example 271]
## Task Out of 1 and 2 , name the one with the higher melting point. Give the label of your selection.
## Result 1

====

assayEndpoint: melting point (°C)

The examples below pair each entry with its known result.
compound="N#CCC(=O)N[C@H]1CC[C@H](CCN2CCN(c3cccc(Cl)c3F)CC2)CC1 [Example 185]" valuereported=183
compound="CC(=O)CN1CCC(CCN2CCN(c3ccc(F)c(F)c3F)CC2)CC1 [Example 656]" valuereported=88
compound="CCOCC(=O)N[C@H]1CC[C@H](CCN2CCN(c3cccc(CC)c3)CC2)CC1 [Example 563]" valuereported=100
compound="NC(=O)CCC(=O)N[C@H]1CC[C@H](CCN2CCN(c3cc(C(F)(F)F)ccc3F)CC2)CC1 [Example 631]" valuereported=238

[A] CSc1cccc(N2CCN(CC[C@H]3CC[C@H](NC(=O)CC#N)CC3)CC2)c1 [Example 182]
[B] CCc1cccc(N2CCN(CCC3CCN(CC(C)=O)CC3)CC2)c1.Cl.Cl
## Task Which of these two has the smaller recorded melting point: A or B ? Give the label of your selection.
## Result A
(A: 132 °C, B: 266 °C)

====

assayEndpoint: melting point (°C)

The examples below pair each entry with its known result.
chemsmiles=NC(=O)CCC(=O)N[C@H]1CC[C@H](CCN2CCN(c3cccc(C(F)(F)F)c3F)CC2)CC1 valuereported=244
chemsmiles=CCC(=O)C(=O)N1CCC(CCN2CCN(c3cccc4c3CCC4)CC2)CC1.Cl valuereported=202
chemsmiles=N#CCCCC(=O)N[C@H]1CC[C@H](CCN2CC=C(c3ccccc3)CC2)CC1 valuereported=171

[a] CCOCC(=O)N[C@H]1CC[C@H](CCN2CCN(c3cccc(C(F)(F)F)c3C#N)CC2)CC1
[b] Cl.N#CCCCC(=O)N[C@H]1CC[C@H](CCN2CCN(c3ccccc3C(F)(F)F)CC2)CC1
## Task Out of a and b , name the one with the higher melting point. Give the label of your selection.
## Result b
(b: 248 °C, a: 173 °C)

====

assayEndpoint: melting point

The examples below pair each entry with its known result.
chemsmiles=N#CCCCC(=O)N[C@H]1CC[C@H](CCN2CCN(c3cccc(Cl)c3)CC2)CC1 assayendpoint="melting point" valuereported="171 to 173 °C"
chemsmiles=Cc1c(Cl)cccc1N1CCN(CC[C@H]2CC[C@H](NC(=O)CC#N)CC2)CC1 assayendpoint="melting point" valuereported="179 to 182 °C"

## Task # input compound: CC(=O)CN1CCC(CCN2CCN(c3cccc(Cl)c3C)CC2)CC1.Cl.Cl ; wanted: its melting point
## Result 320 to 325 °C

====

assayEndpoint: melting point (°C)

[I] O=C(N[C@H]1CC[C@H](CCN2CCN(c3cccc(F)c3)CC2)CC1)C1=CCCCC1
[II] CC(=O)CN1CCC(CCN2CCN(c3cc(F)ccc3F)CC2)CC1
## Task Out of I and II , name the one with the higher melting point. Give the label of your selection.
## Result I

====

assayEndpoint: melting point (°C)

chemsmiles=CC(=O)CN1CCC(CCN2CCN(c3cc(Cl)c(Cl)cc3Cl)CC2)CC1.Cl.Cl unitssymbol=°C valuereported=261
chemsmiles=CC(=O)CN1CCC(CCN2CC=C(c3ccccc3)CC2)CC1 unitssymbol=°C valuereported=80
chemsmiles=N#CCCCC(=O)N[C@H]1CC[C@H](CCN2CCN(c3cccc4c3CCC4)CC2)CC1 unitssymbol=°C valuereported=157

[P] CC(=O)CN1CCC(CCN2CCN(c3cccc(C)c3C)CC2)CC1.Cl.Cl
[Q] Cc1ccc(Cl)c(N2CCN(CC[C@H]3CC[C@H](NC(=O)CC#N)CC3)CC2)c1
## Task Out of P and Q , name the one with the higher melting point. Give the label of your selection.
## Result P

[a] CC(=O)CN1CCC(CCN2CCN(c3cccc4ncccc34)CC2)CC1.Cl.Cl
[b] COCC(=O)N[C@H]1CC[C@H](CCN2CCN(c3cccc(F)c3F)CC2)CC1
## Task Which of these two has the smaller recorded melting point: a or b ? Give the label of your selection.
## Result b

====

assayEndpoint: melting point (°C)

The examples below pair each entry with its known result.
molecule="CCc1ccc(N2CCN(CC[C@H]3CC[C@H](NC(=O)CC#N)CC3)CC2)c(CC)c1 [Example 255]" assayendpoint="melting point" valuereported=183
molecule="N#CCCCC(=O)N[C@H]1CC[C@H](CCN2CCN(c3cccc(-c4ncco4)c3)CC2)CC1 [Example 526]" assayendpoint="melting point" valuereported=192
molecule="CCN(CC)CCC(=O)N[C@H]1CC[C@H](CCN2CCN(c3cccc(F)c3)CC2)CC1 [Example 411]" assayendpoint="melting point" valuereported=118
molecule="CN(C)CCCC(=O)N[C@H]1CC[C@H](CCN2CCN(c3cccc(C(F)(F)F)c3)CC2)CC1 [Example 223]" assayendpoint="melting point" valuereported=128
molecule="CCOCC(=O)N[C@H]1CC[C@H](CCN2CCN(c3ccc(C)cc3)CC2)CC1 [Example 474]" assayendpoint="melting point" valuereported=130
molecule="N#CCC(=O)N[C@H]1CC[C@H](CCN2CCN(c3cccc4c3CCCC4)CC2)CC1 [Example 116]" assayendpoint="melting point" valuereported=175

[1] O=C(N[C@H]1CC[C@H](CCN2CCN(c3cccc(F)c3)CC2)CC1)C1=CCCC1 [Example 400]
[2] N#CCCCC(=O)N[C@H]1CC[C@H](CCN2CCN(c3ccc(F)c(F)c3)CC2)CC1 [Example 357]
## Task Which of these two has the smaller recorded melting point: 1 or 2 ? Give the label of your selection.
## Result 2
